Exercise: for every item that follows, state its recorded self-splicing fitness (ln).
experiment: self-splicing fitness, log relative to wild type (ln ratio); higher = more splicing; Tetrahymena group I intron in knt gene, E. coli kanamycin selection, DiMSum; sequences stand for … in CUCUCU…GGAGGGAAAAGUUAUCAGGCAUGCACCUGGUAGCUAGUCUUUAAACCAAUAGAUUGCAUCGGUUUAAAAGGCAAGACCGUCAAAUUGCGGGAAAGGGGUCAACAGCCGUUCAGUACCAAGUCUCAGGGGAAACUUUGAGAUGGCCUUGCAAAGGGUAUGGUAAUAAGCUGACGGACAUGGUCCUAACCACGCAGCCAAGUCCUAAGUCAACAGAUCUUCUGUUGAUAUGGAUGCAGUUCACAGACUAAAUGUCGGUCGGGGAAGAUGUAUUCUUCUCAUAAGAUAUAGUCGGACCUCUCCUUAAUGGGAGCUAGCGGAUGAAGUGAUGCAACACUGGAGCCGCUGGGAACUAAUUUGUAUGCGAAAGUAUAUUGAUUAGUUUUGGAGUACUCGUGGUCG; conditions: 30 °C;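 also: selection with 25 µg/mL kanamycin versus none on LB agar overnight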
Write no unit; give the number alone.

GET /value?item= CAGGAGCAAUAUUACGAGCC &field=self-splicing fitness (ln) returns -2.71

GET /value?item= AUCGAGCAAUAUUACGAUAA &field=self-splicing fitness (ln) returns -2.7

GET /value?item= AAUAAGCAAUAUUACGGAUG &field=self-splicing fitness (ln) returns -2.21

GET /value?item= AGGCAGCAAUAUUACGAACG &field=self-splicing fitness (ln) returns -1.11

GET /value?item= GUACAGCAAUAUUACGUUAU &field=self-splicing fitness (ln) returns -4.01

GET /value?item= ACGAAGCAAUAUUACGGCGA &field=self-splicing fitness (ln) returns -0.157

GET /value?item= AUCGAGCAAUAUUACGCAUC &field=self-splicing fitness (ln) returns -2.77

GET /value?item= ACGGAGCAAUAUUACGACGC &field=self-splicing fitness (ln) returns -1.26

GET /value?item= GAAUAGCAAUAUUACGAAGC &field=self-splicing fitness (ln) returns -3.17

GET /value?item= GUGGAGCAAUAUUACGAGAU &field=self-splicing fitness (ln) returns -3.23

GET /value?item= AUAAAGCAAUAUUACGGAGC &field=self-splicing fitness (ln) returns -2.79

GET /value?item= UAGUAGCAAUAUUACGAAUU &field=self-splicing fitness (ln) returns -4.36

GET /value?item= UAAAAGCAAUAUUACGUAGC &field=self-splicing fitness (ln) returns -3.26

GET /value?item= GAAAAGCAAUAUUACGUUUG &field=self-splicing fitness (ln) returns -2.71

GET /value?item= GCAUAGCAAUAUUACGUUUU &field=self-splicing fitness (ln) returns -3.61

GET /value?item= GUGUAGCAAUAUUACGCUAC &field=self-splicing fitness (ln) returns -2.35
